Listing of entries alongside the reported self-cleavage.
B1: LINE1-mini (parent)
chain: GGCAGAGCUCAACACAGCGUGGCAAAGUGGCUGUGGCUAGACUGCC

Variants of: B1
Assay: self-cleavage, relative activity (ratio to wild type); higher = more cleavage; in vitro, sequencing; the parent is a self-cleaving ribozyme
Simply state the number, no unit and no words.

Solved cases below.
[[record]]
mutation_notation = "G22C A24G"
assay_endpoint = "self-cleavage"
result_value = 0.74

[[record]]
mutation_notation = "G2U U34C"
assay_endpoint = "self-cleavage"
result_value = 0.04

[[record]]
mutation_notation = "U32C G36A"
assay_endpoint = "self-cleavage"
result_value = 0.08

[[record]]
mutation_notation = "A11U C31A"
assay_endpoint = "self-cleavage"
result_value = 0.04


We now examine a further variant.
Any idea what self-cleavage was measured for G2A A26U ?
1.83
